- Assay target: T1, Rb^P K548N (human, UniProt P06400 380-788, K548N)
- T1 construct: also called variant 26
- T1 sequence (looked up): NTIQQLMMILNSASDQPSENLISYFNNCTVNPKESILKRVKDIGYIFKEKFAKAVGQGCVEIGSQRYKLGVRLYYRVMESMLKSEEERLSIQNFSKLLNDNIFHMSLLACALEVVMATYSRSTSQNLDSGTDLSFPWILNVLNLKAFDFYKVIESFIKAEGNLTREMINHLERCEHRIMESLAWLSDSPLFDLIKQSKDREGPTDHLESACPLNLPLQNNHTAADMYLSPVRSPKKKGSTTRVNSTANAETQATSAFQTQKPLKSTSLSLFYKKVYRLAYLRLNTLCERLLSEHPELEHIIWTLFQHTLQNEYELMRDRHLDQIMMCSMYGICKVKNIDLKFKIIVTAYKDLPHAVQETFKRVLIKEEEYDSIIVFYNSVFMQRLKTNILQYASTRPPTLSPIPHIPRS
- Measurement notes: fluorescence polarisation; 25 °C; unlabeled Rb^P titrated against 1.5 nM TMR-E2F1^TD or 7.5 nM TMR-E7^LxCxE; 25 mM Tris pH 8.0, 200 mM NaCl, 1 mM DTT, 0.1% Tween-20; 2 min incubation; quadratic fit; apparent Kd for the variants, Kd for WT
- Setup conditions: both partners purified
No end group written: not given here. TMR = tetramethyl rhodamine dye
Provide the recorded pKd for the entries that follow.
Answers are plain numbers, as −log10 of the molar value.

Binder | Val
{TMR}-GEGIRDLFDCDFGDLTPLD (also called E2F^TD; source: synthetic peptide, bought: GenScript) [TMR-E2F1^TD, peptide of the E2F1 transactivation domain] | 6.88

From here, focus on the item given below.
[ask] Look at this binder and give its reported pKd. DLYCYEQLN (also: TMR label, position not given here, source: synthetic peptide, bought: GenScript) [TMR-E7^LxCxE, LxCxE peptide of the E7 oncoprotein from HPV]
[reply] 8.22
